assay-target: Uridine-cytidine kinase 1 (Mus musculus, UniProt P52623)
Sequence (P52623 whole entry): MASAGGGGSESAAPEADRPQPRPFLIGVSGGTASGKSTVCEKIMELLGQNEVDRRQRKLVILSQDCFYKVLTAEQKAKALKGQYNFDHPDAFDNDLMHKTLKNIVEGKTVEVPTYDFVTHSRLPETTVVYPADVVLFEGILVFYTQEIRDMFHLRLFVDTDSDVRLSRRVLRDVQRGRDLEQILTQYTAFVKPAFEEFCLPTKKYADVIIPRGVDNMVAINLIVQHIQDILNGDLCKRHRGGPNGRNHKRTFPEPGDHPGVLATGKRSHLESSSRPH
pKi: −log10 of the molar value.

- compound: "Nc1ccn([C@@H]2C=C(CO)[C@@H](O)[C@H]2O)c(=O)n1"
  pKi: 4.22
